In this section we review reported relative viability values for a set of compounds.
# Test system: SW1353
# Test summary: relative viability vs DMSO control (72 h) (fraction); higher = more viable cells
# Experimental conditions: 1.111 µM
The answer should be written as a number, with no unit following it.

Compound	System under test	relative viability
CCN(CC)CCNC(=O)c1c(C)[nH]c(/C=C2\C(=O)Nc3ccc(F)cc32)c1C	SW1353	0.988
Cc1cccc(-c2nn3c(c2-c2ccnc4ccc(C(N)=O)cc24)CCC3)n1	SW1353	0.967
COc1cc(OC)c(/C=C/S(=O)(=O)Cc2ccc(OC)c(NCC(=O)O)c2)c(OC)c1	SW1353	0.426

Okay, next one:
query: What measured relative viability goes with O=C1NC(=O)[C@@H](c2cn3c4c(cccc24)CCC3)[C@@H]1c1c[nH]c2ccccc12 [Tivantinib] ?
result: 0.666

====

# System: SW982
# Test summary: relative viability vs DMSO control (72 h) (fraction); higher = more viable cells
# Experimental conditions: 10 µM
So basically: is relative viability under 0.3? Then class 1. Not under? Then class 0.

query: Given COCCNc1cc(NC(=O)N2CCCc3cc(CN4CCN(C)CC4=O)c(C=O)nc32)ncc1C#N [Roblitinib] , is recorded relative viability strictly lower than 0.3?
result: class 0

query: Dear reviewer, please state whether CC(C)(O)CNc1nc(Nc2ccnc(C(F)(F)F)c2)nc(-c2cccc(C(F)(F)F)n2)n1 [Enasidenib] has relative viability strictly beneath 0.3.
result: class 0

query: Strictly below 0.3: is that where relative viability of Cn1ncnc1[C@H]1c2n[nH]c(=O)c3cc(F)cc(c23)N[C@@H]1c1ccc(F)cc1 [Talazoparib] sits?
result: class 0

query: Is relative viability strictly under 0.3 for the entry COc1cc(CCc2cc(NC(=O)c3ccc(N4CC(C)NC(C)C4)cc3)n[nH]2)cc(OC)c1 (configuration not stated) [AZD-4547] ?
result: class 1

query: Problem: For the compound N#CC1(c2ccc(NC(=O)c3cccnc3NCc3ccncc3)cc2)CCCC1 [Apatinib] , is relative viability under 0.3?
result: class 0

query: Given CCN(CC)CCNC(=O)c1c(C)[nH]c(/C=C2\C(=O)Nc3ccc(F)cc32)c1C [Sunitinib] , is recorded relative viability strictly lower than 0.3?
result: class 1

====

Here, each record is paired with measured relative viability data.
# Test system: SW1353
# Test summary: relative viability vs DMSO control (72 h) (fraction); higher = more viable cells
# Experimental conditions: 0.04115 µM
A bare number is all that is needed in reply.

Smiles record	relative viability
Cc1cc2cc(Oc3ccnc(Nc4cccc(CS(=O)(=O)NCCN(C)C)c4)n3)ccc2[nH]1	0.922
O=S(=O)(c1cccc2cnccc12)N1CCCNCC1	1.03
Cn1ncnc1[C@H]1c2n[nH]c(=O)c3cc(F)cc(c23)N[C@@H]1c1ccc(F)cc1	0.919
COCCNc1cc(NC(=O)N2CCCc3cc(CN4CCN(C)CC4=O)c(C=O)nc32)ncc1C#N	0.953
COC(=O)N[C@@H](C)CNc1nccc(-c2cn(C(C)C)nc2-c2cc(Cl)cc(NS(C)(=O)=O)c2F)n1	1.08
CCN(CC)CCNC(=O)c1c(C)[nH]c(/C=C2\C(=O)Nc3ccc(F)cc32)c1C	0.972
O=C(Nc1nc2cccc(-c3ccc(CN4CCS(=O)(=O)CC4)cc3)n2n1)C1CC1	1

With those in mind, consider the next compound.
query: Query (compound): O=c1sn(-c2cccc3ccccc23)c(=O)n1Cc1ccccc1 ; field requested: relative viability
result: 1.05
